Here, each record is paired with measured relative viability data.
- Test system: PC-14
- Assay explanation: relative viability (nuclei count vs DMSO), 5 days (fraction); higher = more cells survive
- Assay context: first compound 0.05 µM
Reported property: relative viability

| Molecule | Test target | Endpoint value |
| --- | --- | --- |
| Nc1ccn([C@@H]2O[C@H](CO)[C@@H](O)[C@@H]2O)c(=O)n1 [Cytarabine] + Nc1ncn([C@H]2C[C@H](O)[C@@H](CO)O2)c(=O)n1 [Decitabine] (partner 2 µM) | PC-14 | 0.114 |
| Nc1ccn([C@@H]2O[C@H](CO)[C@@H](O)[C@@H]2O)c(=O)n1 [Cytarabine] + C[C@@H](Oc1cc(-c2cnn(C3CCNCC3)c2)cnc1N)c1c(Cl)ccc(F)c1Cl [Crizotinib] (partner 1 µM) | PC-14 | 0.778 |
| COc1cc2nccc(Oc3ccc(NC(=O)Nc4cc(C)on4)c(Cl)c3)c2cc1OC [Tivozanib] + Cc1nc(NC(=O)N2CCC[C@H]2C(N)=O)sc1-c1ccnc(C(C)(C)C(F)(F)F)c1 [Alpelisib] (partner 2 µM) | PC-14 | 1.07 |
| COc1cc2nccc(Oc3ccc(NC(=O)Nc4cc(C)on4)c(Cl)c3)c2cc1OC [Tivozanib] + CC(=O)Nc1cccc(-n2c(=O)n(C3CC3)c(=O)c3c(Nc4ccc(I)cc4F)n(C)c(=O)c(C)c32)c1 [Trametinib] (partner 0.02 µM) | PC-14 | 0.844 |

###

- System: NCI-H1395
- Assay explanation: relative viability (nuclei count vs DMSO), 5 days (fraction); higher = more cells survive
- Assay context: first compound 0.01581 µM

| Compound | Test target | relative viability |
| --- | --- | --- |
| Nc1ccn([C@@H]2O[C@H](CO)[C@@H](O)[C@@H]2O)c(=O)n1 [Cytarabine] + Cc1cc(Nc2cc(N3CCN(C)CC3)nc(Sc3ccc(NC(=O)C4CC4)cc3)n2)n[nH]1 [Tozasertib] (partner 0.1 µM) | NCI-H1395 | 0.633 |
| Nc1ccn([C@@H]2O[C@H](CO)[C@@H](O)[C@@H]2O)c(=O)n1 [Cytarabine] + CS(=O)(=O)N1CCN(Cc2cc3nc(-c4cccc5[nH]ncc45)nc(N4CCOCC4)c3s2)CC1 [Pictilisib] (partner 1 µM) | NCI-H1395 | 0.564 |

###

- System: NCI-H1944
- Assay explanation: relative viability (nuclei count vs DMSO), 5 days (fraction); higher = more cells survive
- Assay context: first compound 2.53 µM
# relative viability per record follows
Reported property: relative viability

| Molecule | Test target | Endpoint value |
| --- | --- | --- |
| O=c1[nH]c2ccccc2n1C1CCN(CCCC(c2ccc(F)cc2)c2ccc(F)cc2)CC1 [Pimozide] + CC(=O)Nc1cccc(-n2c(=O)n(C3CC3)c(=O)c3c(Nc4ccc(I)cc4F)n(C)c(=O)c(C)c32)c1 [Trametinib] (partner 0.02 µM) | NCI-H1944 | 0.346 |
| O=c1[nH]c2ccccc2n1C1CCN(CCCC(c2ccc(F)cc2)c2ccc(F)cc2)CC1 [Pimozide] + Nc1nc2[nH]cc(CCc3ccc(C(=O)N[C@@H](CCC(=O)O)C(=O)O)cc3)c2c(=O)[nH]1 [Pemetrexed] (partner 0.2 µM) | NCI-H1944 | 0.466 |
| Cc1cnc(-c2cnc(NCCNc3ccc(C#N)cn3)nc2-c2ccc(Cl)cc2Cl)[nH]1 + COc1cc2c(Oc3ccc(NC(=O)C4(C(=O)Nc5ccc(F)cc5)CC4)cc3F)ccnc2cc1OCCCN1CCOCC1 [Foretinib] (partner 0.25 µM) | NCI-H1944 | 0.91 |
| Cc1cnc(-c2cnc(NCCNc3ccc(C#N)cn3)nc2-c2ccc(Cl)cc2Cl)[nH]1 + Cc1nc(NC(=O)N2CCC[C@H]2C(N)=O)sc1-c1ccnc(C(C)(C)C(F)(F)F)c1 [Alpelisib] (partner 2 µM) | NCI-H1944 | 0.824 |

###

The reader will find reported relative viability values listed item by item below.
- Tested on: NCI-H2085
- Assay explanation: relative viability (nuclei count vs DMSO), 5 days (fraction); higher = more cells survive
- Assay context: first compound 0.000632 µM

| Compound | relative viability |
| --- | --- |
| CC(=O)O[C@@]12CO[C@@H]1C[C@H](O)[C@@]1(C)C(=O)[C@H](O)C3=C(C)[C@@H](OC(=O)[C@H](O)[C@@H](NC(=O)OC(C)(C)C)c4ccccc4)C[C@@](O)([C@@H](OC(=O)c4ccccc4)[C@H]21)C3(C)C [Docetaxel] + NC(=O)Nc1cc(-c2cccc(F)c2)sc1C(=O)N[C@H]1CCCNC1 [AZD7762] (partner 0.2 µM) | 0.954 |
| CC(=O)O[C@@]12CO[C@@H]1C[C@H](O)[C@@]1(C)C(=O)[C@H](O)C3=C(C)[C@@H](OC(=O)[C@H](O)[C@@H](NC(=O)OC(C)(C)C)c4ccccc4)C[C@@](O)([C@@H](OC(=O)c4ccccc4)[C@H]21)C3(C)C [Docetaxel] + COc1cc2c(Oc3ccc(NC(=O)C4(C(=O)Nc5ccc(F)cc5)CC4)cc3F)ccnc2cc1OCCCN1CCOCC1 [Foretinib] (partner 0.25 µM) | 0.965 |
| CC(=O)O[C@@]12CO[C@@H]1C[C@H](O)[C@@]1(C)C(=O)[C@H](O)C3=C(C)[C@@H](OC(=O)[C@H](O)[C@@H](NC(=O)OC(C)(C)C)c4ccccc4)C[C@@](O)([C@@H](OC(=O)c4ccccc4)[C@H]21)C3(C)C [Docetaxel] + CCNC(=O)c1noc(-c2cc(C(C)C)c(O)cc2O)c1-c1ccc(CN2CCOCC2)cc1 [Luminespib] (partner 0.01 µM) | 0.454 |

###

- Tested on: HCC-366
- Assay explanation: relative viability (nuclei count vs DMSO), 5 days (fraction); higher = more cells survive
- Assay context: first compound 0.5 µM
relative viability by entry:

| Compound | Test target | relative viability |
| --- | --- | --- |
| COc1cc2nccc(Oc3ccc(NC(=O)Nc4cc(C)on4)c(Cl)c3)c2cc1OC [Tivozanib] + CS(=O)(=O)CCNCc1ccc(-c2ccc3ncnc(Nc4ccc(OCc5cccc(F)c5)c(Cl)c4)c3c2)o1 [Lapatinib] (partner 2 µM) | HCC-366 | 0.976 |
| COc1cc2nccc(Oc3ccc(NC(=O)Nc4cc(C)on4)c(Cl)c3)c2cc1OC [Tivozanib] + CC(=O)c1c(C)c2cnc(Nc3ccc(N4CCNCC4)cn3)nc2n(C2CCCC2)c1=O [Palbociclib] (partner 0.5 µM) | HCC-366 | 0.322 |
| Nc1ccn([C@@H]2O[C@H](CO)[C@@H](O)[C@@H]2O)c(=O)n1 [Cytarabine] + C[C@]1(O)C[C@@H](c2nc(-c3ccc4ccc(-c5ccccc5)nc4c3)c3c(N)nccn32)C1 [Linsitinib] (partner 1 µM) | HCC-366 | 0.0253 |
| Nc1ccn([C@@H]2O[C@H](CO)[C@@H](O)[C@@H]2O)c(=O)n1 [Cytarabine] + Cc1nc(NC(=O)N2CCC[C@H]2C(N)=O)sc1-c1ccnc(C(C)(C)C(F)(F)F)c1 [Alpelisib] (partner 2 µM) | HCC-366 | 0.019 |
| COc1cc2nccc(Oc3ccc(NC(=O)Nc4cc(C)on4)c(Cl)c3)c2cc1OC [Tivozanib] + COc1cccc2cc(-c3nc([C@H]4CC[C@H](C(=O)O)CC4)n4ncnc(N)c34)[nH]c12 [OSI-027] (partner 0.5 µM) | HCC-366 | 0.57 |
| COc1cc2nccc(Oc3ccc(NC(=O)Nc4cc(C)on4)c(Cl)c3)c2cc1OC [Tivozanib] + Cc1nc(Nc2ncc(C(=O)Nc3c(C)cccc3Cl)s2)cc(N2CCN(CCO)CC2)n1 [Dasatinib] (partner 0.075 µM) | HCC-366 | 0.587 |
| COc1cc2nccc(Oc3ccc(NC(=O)Nc4cc(C)on4)c(Cl)c3)c2cc1OC [Tivozanib] + Cc1cc(Nc2cc(N3CCN(C)CC3)nc(Sc3ccc(NC(=O)C4CC4)cc3)n2)n[nH]1 [Tozasertib] (partner 0.1 µM) | HCC-366 | 0.111 |
| Nc1ccn([C@@H]2O[C@H](CO)[C@@H](O)[C@@H]2O)c(=O)n1 [Cytarabine] + Cc1cc(Nc2cc(N3CCN(C)CC3)nc(Sc3ccc(NC(=O)C4CC4)cc3)n2)n[nH]1 [Tozasertib] (partner 0.1 µM) | HCC-366 | 0.0652 |
| Nc1ccn([C@@H]2O[C@H](CO)[C@@H](O)[C@@H]2O)c(=O)n1 [Cytarabine] + Nc1nc2[nH]cc(CCc3ccc(C(=O)N[C@@H](CCC(=O)O)C(=O)O)cc3)c2c(=O)[nH]1 [Pemetrexed] (partner 0.2 µM) | HCC-366 | 0.062 |
| COc1cc2nccc(Oc3ccc(NC(=O)Nc4cc(C)on4)c(Cl)c3)c2cc1OC [Tivozanib] + Cc1nc(NC(=O)N2CCC[C@H]2C(N)=O)sc1-c1ccnc(C(C)(C)C(F)(F)F)c1 [Alpelisib] (partner 2 µM) | HCC-366 | 0.388 |

Data origin, for the record: the supplement of paper PMC10307832
